- measurement_protocol: Evaluation of blood-brain barrier (BBB) permeability through oral administration
- Assay type: in vivo, mice
- experimental_parameters: mouse, in vivo; mice, oral, dose 30 mg/kg, 4 hr; read-out: Mean drug concentrations in plasma at 4 hr
measurement_type: concentration at 4 h (ng/mL)
Your answer is read as ng/mL, so omit the unit and give the number.

compound_structure_string=CCCOc1c(C)cc(-c2cc3c(cc2F)[C@H](NC(=O)O[C@@H]2CN4CCC2CC4)C(C)(C)C3)cc1C measurement_type="concentration at 4 h" unit_tag=ng/mL reported_result=234

So what's the measured concentration at 4 h for this one? `COc1c(C)cc(-c2cc3c(cc2F)[C@H](NC(=O)O[C@@H]2CN4CCC2CC4)C(C)(C)C3)cc1C`
974

Moving on to `Cc1cc(OC(C)C)ccc1-c1cc2c(cc1F)[C@H](NC(=O)O[C@@H]1CN3CCC1CC3)C(C)(C)C2`
864

What do you have for `CCOc1ccc(-c2ccc3c(c2)CC(C)(C)[C@H]3NC(=O)O[C@@H]2CN3CCC2CC3)cc1Cl` ?
1290

Next compound up: `CC1(C)Cc2cc(-c3ccc(OCC4CC4)c(Cl)c3)ccc2[C@@H]1NC(=O)O[C@@H]1CN2CCC1CC2`
564

Then what about the compound `CCOc1ccc(-c2cc3c(cc2F)[C@H](NC(=O)O[C@@H]2CN4CCC2CC4)C(C)(C)CC3)cc1` ?
1360
